Attribution: PubChem BioAssay

Assay: adipocyte viability effects, profiling panel, cell-based, 3T3-L1 adipocytes, calcein-AM fluorescence, 48 h, basal (AID 1163)
Details: 3T3-L1 adipocytes viability, higher = more signal

{"QUERY_SMILES": "CCOC(=O)C[C@H]1[C@H](OC(=O)Cc2ccc3c(c2)OCO3)[C@@H](NC(=O)c2ccc3ccccc3c2)c2cc(OCCCO)ccc2N1C(=O)Cc1ccc(OC)cc1", "z-score": 1.08}
{"QUERY_SMILES": "COc1cccc([C@@H]2[C@@H](C)CC[C@H]3C(=O)N4[C@H](c5cccc(OC)c5)[C@@H](C)CC[C@H]4C(=O)N23)c1", "z-score": 0.512}
{"QUERY_SMILES": "Cc1ccc(N2C(=O)c3ccccc3[C@@H](C(=O)NCc3ccccc3)[C@@H]2c2ccc(CO)cc2)nc1", "z-score": 1.14}
{"QUERY_SMILES": "CC(=O)NCCCC[C@@H]1NC(=O)[C@@H]2C[C@H](C(=O)NCCCCCCN(C)C)[C@H](c3ccc(O)cc3)N2C1=O", "z-score": 1.28}
{"QUERY_SMILES": "CC(=O)NCCCC[C@@H]1NC(=O)[C@@H]2C[C@H](C(=O)NCCCCCNC(=O)CS)[C@H](c3ccc(O)cc3)N2C1=O", "z-score": 0.349}
{"QUERY_SMILES": "COc1cc2c(cc1OC)CN(C(=O)[C@H]1[C@@H]3C(=O)O[C@@H](c4ccccc4)[C@@H](c4ccccc4)N3[C@@H](c3ccccc3OCCO)[C@]13C(=O)Nc1ccc(C#CC4(O)CCCCCC4)cc13)CC2", "z-score": -0.0514}
{"QUERY_SMILES": "C=CCC1=C[C@H]2[C@H]([C@@H]3C=C[C@]2(CC=C)C(=O)[C@]32CO2)[C@@]2(CO2)C1=O", "z-score": 0.916}

* * *

System: XIP peptide (Xip251-270) binding
Experiment: small-molecule binders of XIP peptide, primary screen, biochemical, small-molecule microarray, fluorescence 635/667 nm, 0.1 µg/mL protein (AID 1182)
Conditions: fluorescent protein binding, 635 nm, higher = more signal, called active from +8 up or from −8 down

{"MOLECULE": "O=C1O[C@@H](c2ccccc2)[C@@H](c2ccccc2)N2[C@@H](c3ccc(OCCO)cc3)[C@]3(C(=O)Nc4ccc(C#CCCO)cc43)[C@@H](C(=O)N3CCN(c4ncccn4)CC3)[C@H]12", "composite z-score": 0.42}
{"MOLECULE": "C=CCC(OC(C)=O)[C@@H]1[C@@H](N(Cc2cccc3ccccc23)C(=O)Cc2ccc(F)cc2)c2cc(OCCCO)ccc2N1C(=O)Cc1ccc2ccccc2c1 (stereo partly drawn)", "composite z-score": -0.741}
{"MOLECULE": "[N-]=[N+]=Nc1ccccc1C[C@@]1(C(=O)N2CCOCC2)N=C(c2ccc(OCCCO)cc2)O[C@@H]1c1ccccc1N=[N+]=[N-]", "composite z-score": 0.49}
{"MOLECULE": "C=CCC(OC(C)=O)[C@@H]1[C@@H](N(Cc2ccc(-c3cccc(C(F)(F)F)c3)o2)C(=O)Cc2ccc(F)cc2)c2cc(OCCCO)ccc2N1C(=O)c1ccc(-c2ccccc2)cc1 (stereo partly drawn)", "composite z-score": -0.403}
{"MOLECULE": "CCCC=C(CCC)[C@@H](NC(=O)c1ccc(C(F)(F)F)cc1)c1ccccc1", "composite z-score": 0.177}
{"MOLECULE": "O=C1C2C=CC(C(O)Cc3ccccc3)N(Nc3ccc([N+](=O)[O-])cc3)C2C(=O)N1c1ccccc1 (stereo not drawn)", "composite z-score": 2.76}
{"MOLECULE": "CO[C@H]1COC(=O)CC=C[C@@H](C)COC(=O)[C@@H](C)NC(=O)CC=C[C@@H]1C", "composite z-score": 0.89}
{"MOLECULE": "[N-]=[N+]=NCc1ccccc1C[C@@]1(C(=O)N2CCOCC2)N=C(c2ccc(OCCCO)cc2)O[C@@H]1c1ccccc1N=[N+]=[N-]", "composite z-score": 1.4}
{"MOLECULE": "O=C(O)[C@@H]1Cc2c([nH]c3ccccc23)[C@@H](c2ccccc2)N1", "composite z-score": 0.0176}
{"MOLECULE": "C=CC[C@@]1(C(=O)N2CCOCC2)N=C(c2ccc(OCCCO)cc2)O[C@@H]1c1ccccc1", "composite z-score": 1.79}
{"MOLECULE": "COCCOC(=O)N1C(=O)[C@@]2(c3cc(C#CCC(C(=O)OC)C(=O)OC)ccc31)[C@H](C(=O)N1CCN(c3ncccn3)CC1)[C@H]1C(=O)O[C@H](c3ccccc3)[C@H](c3ccccc3)N1[C@@H]2c1ccc(O)cc1", "composite z-score": 1.36}
{"MOLECULE": "CCOC(=O)C[C@H]1[C@H](OC(=O)c2cc3ccccc3oc2=O)[C@@H](NC(=O)C2CCCCC2)c2cc(OCCCO)ccc2N1C(=O)c1ccc2ccccc2n1", "composite z-score": -0.0413}
{"MOLECULE": "CCOC(=O)[C@H]1C/C=C/C[C@H](C(=O)OCC)C(=O)O[C@H]2[C@@H](OC)O[C@H](CO)[C@@H](OC(=O)Nc3ccc(Br)cc3)[C@@H]2OC1=O", "composite z-score": 0.709}
